# Test system: RPMI-8226
# Protocol details: NCI DTP in-vitro dose response, Leukemia

Item smiles: O=C1c2ccccc2C(=O)c2c1ccc1nccnc21
Experimental system: RPMI-8226
CC50: > 100 µM

###

# System: NCI/ADR-RES
# Protocol details: NCI DTP in-vitro dose response, Breast Cancer
# Assay type: cell-based

Item smiles: CCc1nc2ccc3c(c2[nH]1)C(=O)c1ccccc1C3=O
CC50: > 100 µM

###

# System: NCI/ADR-RES
# Protocol details: NCI DTP in-vitro dose response, Breast Cancer
# Type: cell-based
# Assay setup: NCI/ADR-RES; read-out: LC50 (the source's name)
Measurement kind: CC50

Item smiles: O=C1c2ccccc2C(=O)c2c1ccc1nccnc21
Experimental system: NCI/ADR-RES
Measurement kind: CC50
Reported value: > 100 µM
